Reference source for all entries: patent US9663496B2

# Measurement target: AMPK
# Assay comment: AMPK activation, enzyme-linked immunosorbent assay
# Recorded conditions: EC50 for AMPK activation, ELISA
# Method: Compounds were assayed for their ability to activate AMPK using an enzyme-linked immunosorbent assay. Reagents and procedures for measuring AMPK activation are well known and kits for AMPK activation assays are commercially available.
Reported EC50 values for a set of compounds

>  <Item smiles>
COc1ccc(CN2CCC(NC(=O)c3ccc(C(=O)N4CCC(Oc5ccc(NC(C)=O)cc5)CC4)nc3)CC2)cc1

>  <EC50>
< 500 nM

$$$$
>  <Item smiles>
COc1ccc(C(=O)C2CCN(C(=O)c3ccc(C(=O)N[C@H]4CC[C@@H](Oc5ccc(F)cc5)CC4)nc3)CC2)cc1

>  <EC50>
< 500 nM

$$$$
>  <Item smiles>
CC(C)Oc1ccc(CN2CCC(NC(=O)c3ccc(C(=O)N4CCC(C(=O)c5ccc(N6CCCC6)cc5)CC4)nc3)CC2)cc1

>  <EC50>
< 500 nM

$$$$

----------
Reported EC50 values are given for each entry in this list.
# Measurement target: AMPK
# Assay comment: AMPK activation, enzyme-linked immunosorbent assay
# Recorded conditions: EC50 for AMPK activation, ELISA

>  <Compound>
CC(C)S(=O)(=O)c1ccc(N2CCN(C(=O)c3ccc(C(=O)NC4CCN(Cc5ccc(C#N)cc5)CC4)nc3)CC2)cc1 [Compound 251]

>  <EC50>
< 500 nM

$$$$
>  <Compound>
N#Cc1ccc(CN2CCC(NC(=O)c3ccc(C(=O)N4CCC(C(=O)c5ccc(N6CCCC6)cc5)CC4)nc3)CC2)cc1 [Compound 377]

>  <EC50>
< 500 nM

$$$$
>  <Compound>
N#Cc1ccc(Oc2ccc(NC(=O)c3ccc(C(=O)N4CCC(S(=O)(=O)c5ccc(F)cc5)CC4)nc3)cn2)cc1 [Compound 472]

>  <EC50>
1000 to 5000 nM

$$$$
>  <Compound>
COc1ccc(C(=O)C2CCN(C(=O)c3ccc(C(=O)N(C)C4CCN(Cc5ccc(C#N)cc5)CC4)cn3)CC2)cc1 [Compound 482]

>  <EC50>
< 500 nM

$$$$
>  <Compound>
O=C(NC1CCN(Cc2ccc(N3CCCC3)cc2)CC1)c1ccc(C(=O)N2CCC(Oc3ccc(S(=O)(=O)C4CC4)cc3)CC2)nc1 [Compound 248]

>  <EC50>
< 500 nM

$$$$
>  <Compound>
COc1ccc(CN2CCC(NC(=O)c3ccc(C(=O)N4CCC(Oc5ccc(S(C)(=O)=O)cc5)CC4)cn3)CC2)cc1 [Compound 202]

>  <EC50>
< 500 nM

$$$$

----------
Examples of compounds with documented pEC50 follow.
# Measurement target: AMPK
# Assay comment: AMPK activation, enzyme-linked immunosorbent assay
# Recorded conditions: EC50 for AMPK activation, ELISA
pEC50: −log10 of the molar value.

>  <Compound>
COc1cccc(CN2CCC(NC(=O)c3ccc(C(=O)N4CCC(Oc5ccc(S(C)(=O)=O)cc5)CC4)cn3)CC2)c1 [Compound 241]

>  <pEC50>
> 6.30

$$$$
>  <Compound>
N#Cc1ccc(CN2CCC(NC(=O)c3ccc(N4CCN(Cc5ccc(F)cc5)CC4)nn3)CC2)cc1 [Compound 491]

>  <pEC50>
5.30 to 6.00

$$$$
>  <Compound>
COc1ccc(CN2CCC(NC(=O)c3ccc(C(=O)N4CCN(Cc5ccc(F)cc5)CC4)cn3)CC2)cc1 [Compound 117]

>  <pEC50>
> 6.30

$$$$
>  <Compound>
COc1ccc(C(=O)C2CCN(C(=O)c3ccc(C(=O)Nc4ccc(Oc5ccc(C#N)cc5)cn4)cn3)CC2)cc1 [Compound 468]

>  <pEC50>
> 6.30

$$$$
>  <Compound>
CS(=O)(=O)c1ccc(OC2CCN(C(=O)c3ccc(C(=O)N[C@@H]4CCN(Cc5ccc(OC(F)(F)F)cc5)C[C@H]4F)nc3)CC2)cc1 (relative stereo) [Compound 255]

>  <pEC50>
> 6.30

$$$$
>  <Compound>
CS(=O)(=O)c1ccc(OC2CCN(C(=O)c3ccc(C(=O)Nc4ccc(Oc5ccc(C#N)cc5)nc4)cn3)CC2)cc1 [Compound 459]

>  <pEC50>
> 6.30

$$$$
>  <Compound>
N#Cc1ccc(CN2CC[C@H](NC(=O)c3ccc(C(=O)N4CCN(Cc5ccc(F)cc5)CC4)cn3)C2)cc1 [Compound 123]

>  <pEC50>
> 6.30

$$$$
>  <Compound>
N#Cc1ccc(-c2ccc(Nc3ccc(C(=O)NC4CCN(Cc5ccccc5)CC4)nc3)cc2)cc1 [Compound 119]

>  <pEC50>
5.30 to 6.00

$$$$
>  <Compound>
CC(C)N1CCN(C(=O)c2ccc(C(=O)N3CCN(CCc4ccccc4)CC3)nc2)CC1 [Compound 91]

>  <pEC50>
< 5.00

$$$$
>  <Compound>
COc1ccc(C(=O)C2CCN(C(=O)c3ncc(C(=O)NC4CCN(Cc5ccc(C#N)cc5)CC4)cc3CCCNC(=O)OC(C)(C)C)CC2)cc1 [Compound 416]

>  <pEC50>
5.30 to 6.00

$$$$
>  <Compound>
O=C(Nc1ccc(Oc2ccc(F)cc2)nc1)c1ccc(C(=O)N2CCC(Oc3ccc(F)cc3F)CC2)nc1 [Compound 343]

>  <pEC50>
> 6.30

$$$$
>  <Compound>
COc1ccc(CN2CCC(NC(=O)c3ccc(C(=O)N4CCN(Cc5ccc(C#N)cc5)CC4)cn3)CC2)cc1 [Compound 285]

>  <pEC50>
> 6.30

$$$$
>  <Compound>
COc1ccc(S(=O)(=O)N2CCN(C(=O)c3ccc(C(=O)NC4CCN(Cc5ccc(C#N)cc5)CC4)nc3)CC2)cc1 [Compound 79]

>  <pEC50>
6.00 to 6.30

$$$$
>  <Compound>
N#Cc1ccc(CN2CCC(NC(=O)c3cnc(C(=O)N4CCC(Oc5ccc(C(F)(F)F)cc5)CC4)cn3)CC2)cc1 [Compound 212]

>  <pEC50>
> 6.30

$$$$

----------
# Measurement target: AMPK
# Assay comment: AMPK activation, enzyme-linked immunosorbent assay
# Recorded conditions: EC50 for AMPK activation, ELISA
pEC50: −log10 of the molar value.

>  <Item smiles>
CS(=O)(=O)c1ccc(Oc2ccc(NC(=O)c3ccc(C(=O)N4CCC(C(=O)c5ccc(F)cc5F)CC4)nc3)cn2)cc1

>  <pEC50>
> 6.30

$$$$
>  <Item smiles>
COc1ccc(C(=O)C2CCN(C(=O)c3ccc(C(=O)Nc4ccc(Oc5ccc(C(=O)N(C)C)cc5)nc4)cn3)CC2)cc1

>  <pEC50>
> 6.30

$$$$
>  <Item smiles>
O=C(Nc1ccc(Oc2ccc(F)cc2)nc1)c1ccc(C(=O)N2CCC(Oc3ccc(F)cc3)CC2)cn1

>  <pEC50>
> 6.30

$$$$
>  <Item smiles>
N#Cc1ccc(CN2CCC(NC(=O)c3ccc(N4CCC(Oc5ccc(C#N)cc5)CC4)nn3)CC2)cc1

>  <pEC50>
> 6.30

$$$$
>  <Item smiles>
CS(=O)(=O)c1ccc(OC2CCN(C(=O)c3ccc(C(=O)Nc4ccc(S(=O)(=O)c5ccc(F)cc5)nc4)nc3)CC2)cc1

>  <pEC50>
> 6.30

$$$$
>  <Item smiles>
N#Cc1ccc(CN2CCC(C(=O)Nc3ccc(C(=O)N4CCC(C(=O)c5ccc(F)cc5)CC4)cn3)CC2)cc1

>  <pEC50>
> 6.30

$$$$
>  <Item smiles>
CC(=O)c1ccc(OC2CCN(C(=O)c3ccc(C(=O)NC4CCN(Cc5ccc(F)cc5)CC4)cn3)CC2)cc1

>  <pEC50>
> 6.30

$$$$
>  <Item smiles>
O=C(Nc1ccc(-c2ccccc2)cc1)c1ccc(C(=O)N2CCN(Cc3ccc(F)cc3)CC2)cn1

>  <pEC50>
> 6.30

$$$$
>  <Item smiles>
COc1ccc(OC2CCN(C(=O)c3ccc(C(=O)NC4CCN(Cc5cc(F)cc(F)c5)CC4)nc3)CC2)cc1

>  <pEC50>
> 6.30

$$$$
>  <Item smiles>
N#Cc1ccc(CN2CCC(NC(=O)c3ccc(C(=O)N4CCN(C(=O)c5ccccc5)CC4)cn3)CC2)cc1

>  <pEC50>
5.30 to 6.00

$$$$
>  <Item smiles>
COc1ccc(N2CCC(NC(=O)c3ccc(C(=O)N4CCC(Oc5ccc(C#N)cc5)CC4)nc3)CC2)cc1

>  <pEC50>
> 6.30

$$$$
>  <Item smiles>
COc1ccc(C(=O)C2CCN(C(=O)c3ccc(C(=O)NC4CCN(Cc5cc(F)cc(F)c5)CC4)nc3)CC2)cc1

>  <pEC50>
> 6.30

$$$$
>  <Item smiles>
COc1ccc(C(=O)C2CCN(C(=O)c3ccc(C(=O)N[C@H]4CC[C@@H](Oc5ccc(C(F)(F)F)cc5)CC4)nc3)CC2)cc1

>  <pEC50>
> 6.30

$$$$
>  <Item smiles>
CS(=O)(=O)c1ccc(C(=O)C2CCN(C(=O)c3ccc(C(=O)Nc4ccc(Oc5ccc(F)cc5)nc4)nc3)CC2)cc1

>  <pEC50>
> 6.30

$$$$
>  <Item smiles>
COc1ccc(C(=O)N2CCN(C(=O)c3ccc(C(=O)NC4CCN(Cc5ccc(C#N)cc5)CC4)nc3)CC2)cc1

>  <pEC50>
> 6.30

$$$$
>  <Item smiles>
N#Cc1ccc(CN2CCC(NC(=O)c3ccc(Nc4ccc(-c5ccccc5)cc4)cn3)CC2)cc1

>  <pEC50>
5.00 to 5.30

$$$$
>  <Item smiles>
O=C(Nc1ccc(Oc2ccc(F)cc2)nc1)c1ccc(C(=O)N2CCC(C(=O)c3ccc(F)cc3F)CC2)nc1

>  <pEC50>
> 6.30

$$$$
>  <Item smiles>
O=C(NC1CCN(Cc2ccc(OC(F)(F)F)cc2)CC1)c1ccc(C(=O)N2CCC(Oc3ccc(S(F)(F)(F)(F)F)cc3)CC2)nc1

>  <pEC50>
> 6.30

$$$$
>  <Item smiles>
N#Cc1ccc(CN2CCC(NC(=O)c3ncc(C(=O)N4CCN(Cc5ccc(F)cc5)CC4)cc3CCCNC(=O)CCOCCOCCOCCOCCNC(=O)CCCC[C@@H]3SC[C@@H]4NC(=O)N[C@@H]43)CC2)cc1

>  <pEC50>
> 6.30

$$$$
>  <Item smiles>
CC(C)(c1ccccc1)N1CCN(C(=O)c2ccc(C(=O)NC3CCN(Cc4ccc(C#N)cc4)CC3)nc2)CC1

>  <pEC50>
> 6.30

$$$$
>  <Item smiles>
CC(=O)Nc1ccc(OC2CCN(C(=O)c3ccc(C(=O)NC4CCN(Cc5ccc(F)cc5)CC4)cn3)CC2)cc1

>  <pEC50>
6.00 to 6.30

$$$$
>  <Item smiles>
COc1ccc(CN2CCC(NC(=O)c3ccc(C(=O)N4CCC(C(=O)c5ccc(S(C)(=O)=O)cc5)CC4)cn3)CC2)cc1

>  <pEC50>
> 6.30

$$$$
>  <Item smiles>
COc1ccc(C(=O)C2CCN(C(=O)c3ccc(C(=O)NC4CCN(Cc5ccc(NC(=O)CCOCCOCCOCCNC(=O)CCCC[C@@H]6SC[C@@H]7NC(=O)N[C@@H]76)cc5)CC4)nc3)CC2)cc1

>  <pEC50>
< 5.00

$$$$
>  <Item smiles>
N#Cc1ccc(CN2CCC(NC(=O)c3ccc(C(=O)N4CCN(C5CCOCC5)CC4)cn3)CC2)cc1

>  <pEC50>
< 5.00

$$$$
>  <Item smiles>
O=C(Nc1ccc(-c2ccccc2)cc1)c1ccc(C(=O)NC2CCN(Cc3ccccc3)CC2)nc1

>  <pEC50>
< 5.00

$$$$
>  <Item smiles>
N#Cc1ccc(CN2CCC(NC(=O)c3ccc(C(=O)N4CCN(S(=O)(=O)c5ccc(F)cc5)CC4)cn3)CC2)cc1

>  <pEC50>
> 6.30

$$$$
>  <Item smiles>
N#Cc1ccc(CN2CCC(NC(=O)c3ccc(C(=O)NCCOc4ccc(F)cc4)cn3)CC2)cc1

>  <pEC50>
6.00 to 6.30

$$$$
